Test Conditions: in isopropanol, 313.15 K
Metric Name: solubility (mole fraction)
Please respond with just the number, no unit label.

Consider the molecule `CO/N=C1\C[C@]2(C[C@@H]3C[C@@H](C/C=C(\C)C[C@@H](C)/C=C/C=C4\CO[C@@H]5[C@H](O)C(C)=C[C@@H](C(=O)O3)[C@]45O)O2)O[C@H](/C(C)=C/C(C)C)[C@H]1C` and give its measured solubility (mole fraction).
0.0346

----------
Test Conditions: in ethanol, 313.15 K
Metric Name: solubility (mole fraction)

Name the recorded solubility (mole fraction) for `CO/N=C1\C[C@]2(C[C@@H]3C[C@@H](C/C=C(\C)C[C@@H](C)/C=C/C=C4\CO[C@@H]5[C@H](O)C(C)=C[C@@H](C(=O)O3)[C@]45O)O2)O[C@H](/C(C)=C/C(C)C)[C@H]1C` .
0.173
